Origin of values: patent US20230167182A1

Molecular target: T1, macaca IL6R-his protein (macaca mulatta)
T1 chain: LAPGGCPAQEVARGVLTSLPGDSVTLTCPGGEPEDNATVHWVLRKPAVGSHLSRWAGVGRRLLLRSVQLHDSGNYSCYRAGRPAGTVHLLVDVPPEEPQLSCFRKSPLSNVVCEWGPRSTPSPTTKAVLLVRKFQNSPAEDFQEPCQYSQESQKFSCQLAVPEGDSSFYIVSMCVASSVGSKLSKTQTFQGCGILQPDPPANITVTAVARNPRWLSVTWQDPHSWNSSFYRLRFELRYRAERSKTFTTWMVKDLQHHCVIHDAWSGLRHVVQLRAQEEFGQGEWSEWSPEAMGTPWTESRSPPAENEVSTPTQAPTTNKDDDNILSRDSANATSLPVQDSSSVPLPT
Assay: indirect ELISA on plate-coated macaca IL6R-his
recordedMetric: pEC50
// pEC50 is dimensionless: -log10 of concentration (M)

Prompt line: Provide one value: measured pEC50 of humanized antibody hu1H7-V5 (antibody, human IgG1, kappa, V domains shown, Human IgG1 / kappa) VH: QVQLVQSGAEVKKPGASVKVSCKASGYTFTNYWMHWVRQAPGQGLEWIGEINPTNGRTNYNENFKSRVTLTVDTSTSTVYMELSSLRSEDTAVYYCARLNTHYVFDSWGQGTLVTVSS VL: EIVLTQSPGTLSLSPGERATLSCSVSSSISSNYLHWYQQKPGLSPRLLISRTSTLASGIPARFSGSGSGTEYTLTISRMQSEDFAVYYCQQGSGIPFTFGQGTKLEIKR
Response line: 9.62

Prompt line: // fetch pEC50 given entry Tocilizumab (antibody, human IgG1, kappa, V domains shown, In house made; also called benchmark; Actemra) VH: QVQLQESGPGLVRPSQTLSLTCTVSGYSITSDHAWSWVRQPPGRGLEWIGYISYSGITTYNPSLKSRVTMLRDTSKNQFSLRLSSVTAADTAVYYCARSLARTTAMDYWGQGSLVTVSS VL: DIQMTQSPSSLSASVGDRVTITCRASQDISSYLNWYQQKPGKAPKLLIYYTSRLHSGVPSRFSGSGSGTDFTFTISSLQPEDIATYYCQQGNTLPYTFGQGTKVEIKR
Response line: 9.70

Prompt line: Give pEC50 for the following binder: mouse anti-IL6R monoclonal antibody 1H7 (antibody, V domains shown, Mouse hybridoma mAb) VH: QVQLQQPGTELVKPGASVKLSCKASGYTFTNYWMHWVKQRPGQGLDWIGEINPTNGRTNYNENFKSKATLTVDKSSSTAYMQLSSLTSEDSAVYYCARLNTHYVFDSWGQGTTLTLSS VL: EIVLTQSPTTLAASPGEKITFTCSVSSSISSNYLHWYQQKPGFSPKLLISRTSTLASGVPARFSGSGSGTSYSLTIGTMEAEDVATYYCQQGSGIPFTFGSGTKLELK
Response line: 9.83

Prompt line: Retrieve pEC50 measured for Chimeric 1H7 (antibody, human IgG1, kappa, V domains shown, Mouse variable regions on human IgG1 / human kappa constant regions; also called chimeric antibody 1H7) VH: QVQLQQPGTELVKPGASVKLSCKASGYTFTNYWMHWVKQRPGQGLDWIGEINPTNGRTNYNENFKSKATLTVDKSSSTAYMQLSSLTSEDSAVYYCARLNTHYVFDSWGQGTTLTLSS VL: EIVLTQSPTTLAASPGEKITFTCSVSSSISSNYLHWYQQKPGFSPKLLISRTSTLASGVPARFSGSGSGTSYSLTIGTMEAEDVATYYCQQGSGIPFTFGSGTKLELKR and print it.
Response line: 9.64
